# Test method notes: Plasma pharmacokinetics of RPM constituents after oral RPM extract
# Recorded conditions: Sprague-Dawley, rat, plasma, po, 6 g/kg
Recorded metric: AUC(0-t) (µM·h)

Compound	AUC(0-t), µM·h
OC[C@H]1O[C@@H](Oc2c(O)cc(O)cc2/C=C/c2ccc(O)cc2)[C@H](O)[C@@H](O)[C@@H]1O [TSG]	2.38
COc1cc(O)cc2c1C(=O)c1c(O)cc(CO)cc1C2=O [Questinol, questinol]	0.00861
O=C1c2cccc(O)c2C(=O)c2c(O)cc(CO)cc21 [Aloe-emodin, aloe-emodin]	0.00832
Cc1cc(O)c2c(c1)C(=O)c1cc(O)cc(O)c1C2=O [Emodin, emodin]	1.04
Cc1cc(O)c2c(c1)C(=O)c1cccc(O)c1C2=O [Chrysophanol]	0.0748

I = COc1cc(O[C@@H]2O[C@H](CO)[C@@H](O)[C@H](O)[C@H]2O)c2c(c1)C(=O)c1cc(C)cc(O)c1C2=O [PG, physcion-8-O-β-D-glucoside]
II = COc1cc(O[C@@H]2O[C@H](CO)[C@@H](O)[C@H](O)[C@H]2O)c2c(O)c(C(C)=O)c(C)cc2c1 [TG, torachrysone-8-O-glucoside]
Problem: Hi team, can someone confirm which has the larger AUC(0-t): I or II ? Thanks. API: response body contains the label of the selected item.
Result: I
